target: NGF (nerve growth factor) (Homo sapiens, UniProt P01138 P01138:122-241); assay: cell_activity; neurite; TF-1 0.035; conditions: tags: R&D Systems; chain copies: 2
Sequence (P01138 122-241, one chain of several): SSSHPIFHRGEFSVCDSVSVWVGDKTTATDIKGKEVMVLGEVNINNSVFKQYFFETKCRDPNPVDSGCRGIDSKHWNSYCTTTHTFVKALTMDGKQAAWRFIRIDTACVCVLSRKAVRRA
REPORTED ENDPOINT: pIC50
The read-out pIC50 is expressed as -log10 of concentration in moles per litre.

Sample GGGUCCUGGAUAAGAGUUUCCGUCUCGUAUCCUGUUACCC (ssRNA, as 82(1) except 2'-OMe C26) [SEQ ID NO: 82(9)] ; pIC50 observed: 9.60
